Origin of the recorded values: patent US20190284136A1

Test system: HIV
protocol text: Table 1 IC50 of the examples (assay method not given; patent concerns inhibiting HIV replication)
Assay type: cell-based
measurement conditions: Human immunodeficiency virus 1
pIC50: −log10 of the molar value.
Decide using pIC50: a value greater than or equal to 8 is Met, a smaller one is Not met.

                                   compound  target_system  class_name
0  Cc1cc(Cl)ccc1C(=O)N1CCc2c1cc(C)c([C@H](OC(C)(C)C)C(=O)O)c2-c1cc(F)c2c(c1C)CCCO2 (atropisomer, axis not shown)            HIV         Met
1  Cc1cc2c(c(-c3cc(F)c4c(c3C)CCCO4)c1[C@H](OC(C)(C)C)C(=O)O)CCN2C(=O)C1=CCCCC1 (atropisomer, axis not shown)            HIV         Met
2  Cc1ccc(-c2c3c(cc(C)c2[C@H](OC(C)(C)C)C(=O)O)N(C(=O)c2ccc(F)c(F)c2)CC3)cc1            HIV         Met
3  Cc1ccc(-c2c3c(cc(C)c2C(OC(C)(C)C)C(=O)O)N(C(=O)c2cccc(F)c2)CCC3)cc1 (centres unmarked)            HIV     Not met
4  Cc1cc2c(c(-c3cc(F)c4c(c3C)CCCO4)c1[C@H](OC(C)(C)C)C(=O)O)CCN2C(=O)c1ccc(Cl)c(F)c1 (atropisomer, axis not shown)            HIV         Met
5  Cc1ccc(C(=O)N2CCc3c2cc(C)c([C@H](OC(C)(C)C)C(=O)O)c3-c2cc(C)c3c(c2C)CCCO3)cn1 (atropisomer, axis not shown)            HIV     Not met

* * *

IC50 for assorted compounds
Test system: HIV
protocol text: Table 1 IC50 of the examples (assay method not given; patent concerns inhibiting HIV replication)
Type: cell-based
measurement conditions: Human immunodeficiency virus 1
assay endpoint: IC50

                                    compound  target_system  assay_endpoint  experimental_result
 0  COc1ccc(C(=O)N2CCc3c2cc(C)c([C@H](OC(C)(C)C)C(=O)O)c3-c2cc(OC)c3c(c2C)CCCO3)cc1C (atropisomer, axis not shown)            HIV            IC50                 5 nM
 1  Cc1cc2c(c(-c3cc(F)c4c(c3C)CCCO4)c1[C@H](OC(C)(C)C)C(=O)O)CCN2C(=O)c1ccc2c(c1)CCO2 (atropisomer, axis not shown)            HIV            IC50                 2 nM
 2  COc1cc(C)ccc1C(=O)N1CCc2c1cc(C)c([C@H](OC(C)(C)C)C(=O)O)c2-c1cc(F)c2c(c1C)CCCO2 (atropisomer, axis not shown)            HIV            IC50                 4 nM
 3  COc1c(C(=O)N2CCc3c2cc(C)c([C@H](OC(C)(C)C)C(=O)O)c3-c2cc(F)c3c(c2C)CCCO3)cccc1C(F)(F)F (atropisomer, axis not shown)            HIV            IC50                 5 nM
 4  Cc1ccc(-c2c3c(cc(C)c2[C@H](OC(C)(C)C)C(=O)O)N(C(=O)OC(C)(C)C)CC3)cc1            HIV            IC50                47 nM
 5  Cc1cc2c(c(-c3cc(F)c4c(c3C)CCCO4)c1[C@H](OC(C)(C)C)C(=O)O)CCN2C(=O)c1ccccc1C(F)(F)F (atropisomer, axis not shown)            HIV            IC50                 5 nM
 6  Cc1cc2c(c(-c3cc(F)c4c(c3C)CCCO4)c1[C@H](OC(C)(C)C)C(=O)O)CCN2C(=O)c1ccc(C(F)(F)F)cc1Cl (atropisomer, axis not shown)            HIV            IC50                26 nM
 7  Cc1ccc(-c2c3c(cc(C)c2C(OC(C)(C)C)C(=O)O)N(C(=O)C(=O)N2CCCCC2)CC3)cc1 (stereo not drawn)            HIV            IC50               343 nM
 8  Cc1ccc(F)c(C(=O)N2CCc3c2cc(C)c([C@H](OC(C)(C)C)C(=O)O)c3-c2cc(F)c3c(c2C)CCCO3)c1 (atropisomer, axis not shown)            HIV            IC50                 6 nM
 9  Cc1ccc(-c2c3c(cc(C)c2[C@H](OC(C)(C)C)C(=O)O)N(C(=O)c2cc(F)ccc2C)CC3)cc1            HIV            IC50                13 nM
10  Cc1cc2c(c(-c3cc(F)c4c(c3C)CCCO4)c1[C@H](OC(C)(C)C)C(=O)O)CCN2C(=O)c1cccc2c1CCCO2 (atropisomer, axis not shown)            HIV            IC50                 2 nM
11  Cc1cc2c(c(-c3cc(F)c4c(c3C)CCCO4)c1[C@H](OC(C)(C)C)C(=O)O)CCN2C(=O)c1cc(F)cc(C(F)(F)F)c1            HIV            IC50                14 nM
